# measurement notes: The drug is tested on Bacteroides fragilis strain: HMW615 for biotransformation. The drug concentrations were measured before and after a 12-h incubation by liquid-chromatography-coupled mass spectrometry (LC–MS)
# condition description: 2 µM
result type: Bacterial Biotransformation

In the examples that follow, each entry is paired with its recorded Bacterial Biotransformation.
CO[C@]12C[C@@H](COC(=O)c3cncc(Br)c3)CN(C)[C@@H]1Cc1cn(C)c3cccc2c13
Compound NOT metabolized
CN(C)CCOC(C)(c1ccccc1)c1ccccn1.O=C(O)CCC(=O)O (stereo not drawn) [DOXYLAMINE SUCCINATE]
Compound NOT metabolized
CCN(CC)C(=O)C1(c2ccccc2)CC1CN (stereo not drawn)
Compound NOT metabolized
CN1C(C(=O)Nc2ccccn2)=C(O)c2sccc2S1(=O)=O
Compound NOT metabolized
CN(C/C=C/C#CC(C)(C)C)Cc1cccc2ccccc12
Compound NOT metabolized
CCc1nc(N)nc(N)c1-c1ccc(Cl)cc1
Compound NOT metabolized

Q: Requested field: Bacterial Biotransformation. Item: COc1cc2nc(N3CCN(C(=O)C4CCCO4)CC3)nc(N)c2cc1OC (stereo not drawn)
Result: Compound NOT metabolized

Q: Which Bacterial Biotransformation reading was recorded for the compound COC(=O)C(c1ccccc1)C1CCCCN1 (stereo not drawn) [METHYLPHENIDATE] ?
Result: Compound NOT metabolized

Q: Recorded Bacterial Biotransformation of CCCCC(=O)O[C@]1(C(=O)CO)[C@@H](C)C[C@H]2[C@@H]3CCC4=CC(=O)C=C[C@]4(C)[C@@]3(F)[C@@H](O)C[C@@]21C [BETAMETHASONE VALERATE] , please.
Result: Compound metabolized

Q: Bacterial Biotransformation lookup needed for `CC(C)(C#N)c1cc(Cn2cncn2)cc(C(C)(C)C#N)c1` , thanks.
Result: Compound NOT metabolized

Q: Item CCOc1cc(CC(=O)N[C@@H](CC(C)C)c2ccccc2N2CCCCC2)ccc1C(=O)O [REPAGLINIDE] has what recorded Bacterial Biotransformation?
Result: Compound metabolized

====

# measurement notes: The drug is tested on Bacteroides dorei strain: DSM17855 for biotransformation. The drug concentrations were measured before and after a 12-h incubation by liquid-chromatography-coupled mass spectrometry (LC–MS)
# condition description: phocaeicola dorei, 2 µM
result type: Bacterial Biotransformation

The examples below pair each entry with its known result.
CC[C@@H](CO)NC(=O)[C@@H]1C=C2c3cccc4c3c(cn4C)C[C@H]2N(C)C1.O=C(O)/C=C\C(=O)O [METHYSERGIDE MALEATE]
Compound metabolized
CNC(=C[N+](=O)[O-])NCCSCc1ccc(CN(C)C)o1
Compound metabolized
COc1cc(C(=O)NCc2ccc(OCCN(C)C)cc2)cc(OC)c1OC [TRIMETHOBENZAMIDE]
Compound NOT metabolized
CSc1ccc2c(c1)C(N1CCN(C)CC1)Cc1ccccc1S2.O=C(O)/C=C\C(=O)O (stereo not given)
Compound NOT metabolized

We now examine a further compound.
Q: Param item = `Nc1c2c(nc3ccccc13)CCCC2` ; retrieve measured Bacterial Biotransformation.
Result: Compound NOT metabolized

====

# measurement notes: The drug is tested on Eubacterium rectale strain: ATCC33656 for biotransformation. The drug concentrations were measured before and after a 12-h incubation by liquid-chromatography-coupled mass spectrometry (LC–MS)
# condition description: agathobacter rectalis, 2 µM
result type: Bacterial Biotransformation

Use these answered entries as a reference point.
CC[C@H](C)C(=O)O[C@H]1C[C@@H](C)C=C2C=C[C@H](C)[C@H](CC[C@@H]3C[C@@H](O)CC(=O)O3)[C@H]21 [LOVASTATIN]
Compound NOT metabolized
CC(C)N(CCC(C(N)=O)(c1ccccc1)c1ccccn1)C(C)C.O=P(O)(O)O (stereo not drawn) [DISOPYRAMIDE PHOSPHATE]
Compound NOT metabolized
C[C@@H]1CC[C@H]2[C@@H](C)C(=O)O[C@@H]3O[C@@]4(C)CC[C@@H]1[C@]32OO4 [ARTEMISININ]
Compound metabolized
CCN(CC)CCNC(=O)c1cc(Cl)c(N)cc1OC [METOCLOPRAMIDE]
Compound NOT metabolized
CN1CCC(OC(c2ccccc2)c2ccccc2)CC1
Compound NOT metabolized

Q: Value lookup for Bacterial Biotransformation; key = CCN(CC)CCOC(=O)C(Cc1cccc2ccccc12)CC1CCCO1.O=C(O)C(=O)O (stereo not drawn) [NAFRONYL OXALATE]
Result: Compound NOT metabolized

Q: Query: Bacterial Biotransformation; subject: CCOc1ccc2nc(S(N)(=O)=O)sc2c1 [ETHOXZOLAMIDE]
Result: Compound metabolized

Q: Value lookup for Bacterial Biotransformation; key = CC(=O)CCCCn1c(=O)c2c(ncn2C)n(C)c1=O [PENTOXIFYLLINE]
Result: Compound NOT metabolized

====

# measurement notes: The drug is tested on Anaerococcus hydrogenalis strain: DSM7454 for biotransformation. The drug concentrations were measured before and after a 12-h incubation by liquid-chromatography-coupled mass spectrometry (LC–MS)
# condition description: 2 µM
result type: Bacterial Biotransformation

Examples with their reported Bacterial Biotransformation follow.
CCc1oc2ccccc2c1C(=O)c1cc(Br)c(O)c(Br)c1
Compound NOT metabolized
CNCC[C@H](Oc1cccc2ccccc12)c1cccs1
Compound NOT metabolized
CCOC(=O)C1=C[C@]2(CC)CCCN3CCc4c(n1c1ccccc41)[C@@H]32
Compound NOT metabolized
CN1CCN(C2=Nc3ccccc3Oc3ccc(Cl)cc32)CC1.O=C(O)CCC(=O)O [LOXAPINE SUCCINATE]
Compound NOT metabolized
CCc1nn(CCCN2CCN(c3cccc(Cl)c3)CC2)c(=O)n1CCOc1ccccc1
Compound NOT metabolized
CCOC(=O)[C@H](CCc1ccccc1)N[C@@H](C)C(=O)N1Cc2ccccc2C[C@H]1C(=O)O
Compound NOT metabolized
CNC(=C[N+](=O)[O-])NCCSCc1csc(CN(C)C)n1
Compound metabolized
Cc1ccc(-c2cc(C(F)(F)F)nn2-c2ccc(S(N)(=O)=O)cc2)cc1
Compound NOT metabolized

Q: Quick one: Bacterial Biotransformation for COc1ccc2[nH]c([S+]([O-])Cc3ncc(C)c(OC)c3C)nc2c1 (configuration not stated) ?
Result: Compound metabolized

Q: Requested read-out: Bacterial Biotransformation. Entry: COC(=O)[C@H](c1ccccc1Cl)N1CCc2sccc2C1.O=S(=O)(O)O [CLOPIDOGREL BISULFATE]
Result: Compound NOT metabolized

Q: Entry `CCCCC1=NC2(CCCC2)C(=O)N1Cc1ccc(-c2ccccc2-c2nnn[nH]2)cc1` : reported Bacterial Biotransformation = ?
Result: Compound metabolized

Q: So what's the measured Bacterial Biotransformation for this one? `Cc1cn([C@H]2C[C@H](N=[N+]=[N-])[C@@H](CO)O2)c(=O)[nH]c1=O`
Result: Compound metabolized

Q: Field request: Bacterial Biotransformation | item: O=P1(N(CCCl)CCCl)NCCCO1 (configuration not stated) [CYCLOPHOSPHAMIDE ANHYDROUS]
Result: Compound NOT metabolized

Q: Query (compound): CCC(C)n1ncn(-c2ccc(N3CCN(c4ccc(OCC5COC(Cn6cncn6)(c6ccc(Cl)cc6Cl)O5)cc4)CC3)cc2)c1=O (configuration not stated) ; field requested: Bacterial Biotransformation
Result: Compound NOT metabolized

Q: Form field: reported Bacterial Biotransformation of CC(C)(C)NCC(O)COc1cccc2c1CC(O)C(O)C2 (configuration not stated)
Result: Compound NOT metabolized

Q: Value lookup for Bacterial Biotransformation; key = `CC[C@H](C)C(=O)O[C@H]1CCC=C2C=C[C@H](C)[C@H](CC[C@@H]3C[C@@H](O)CC(=O)O3)[C@H]21`
Result: Compound metabolized

Q: I would be grateful if you could share the reported Bacterial Biotransformation for `CN/C(=N/CCSCc1nc[nH]c1C)NC#N` .
Result: Compound NOT metabolized

====

# measurement notes: The drug is tested on Blautia hansenii strain: DSM20583 for biotransformation. The drug concentrations were measured before and after a 12-h incubation by liquid-chromatography-coupled mass spectrometry (LC–MS)
# condition description: 2 µM
result type: Bacterial Biotransformation

Known results for molecules:
CC(C)[C@H]1CC[C@H](C(=O)N[C@H](Cc2ccccc2)C(=O)O)CC1 [NATEGLINIDE]
Compound NOT metabolized
CCOc1ccc(NC(C)=O)cc1 [PHENACETIN]
Compound NOT metabolized
C[C@]12C=CC(=O)C=C1CC[C@@H]1[C@@H]2C(=O)C[C@@]2(C)[C@H]1CC[C@]2(O)C(=O)CO [PREDNISONE]
Compound NOT metabolized
C[C@@H]1CC[C@H]2[C@@H](C)C(=O)O[C@@H]3O[C@@]4(C)CC[C@@H]1[C@]32OO4 [ARTEMISININ]
Compound metabolized
O=C(O)COCCN1CCN(C(c2ccccc2)c2ccc(Cl)cc2)CC1 (stereo not drawn) [CETIRIZINE]
Compound metabolized

Q: Please look up its Bacterial Biotransformation: COc1ccc2[nH]c([S+]([O-])Cc3ncc(C)c(OC)c3C)nc2c1 (stereo not drawn) [OMEPRAZOLE]
Result: Compound metabolized

Q: Form field: reported Bacterial Biotransformation of O=C(O)c1cc(/N=N/c2ccc(S(=O)(=O)Nc3ccccn3)cc2)ccc1O [SULFASALAZINE]
Result: Compound metabolized

Q: Give its Bacterial Biotransformation value. Item: CCOc1ccccc1OCCN[C@H](C)Cc1ccc(OC)c(S(N)(=O)=O)c1.Cl [TAMSULOSIN HYDROCHLORIDE]
Result: Compound NOT metabolized
